Measured values drawn from patent US20230303667A1 for this set.

Biological target: T1, Ebola Zaire (Kikwit strain) glycoprotein (Ebola Zaire (Kikwit strain), UniProt P87666 33-676)
T1 sequence: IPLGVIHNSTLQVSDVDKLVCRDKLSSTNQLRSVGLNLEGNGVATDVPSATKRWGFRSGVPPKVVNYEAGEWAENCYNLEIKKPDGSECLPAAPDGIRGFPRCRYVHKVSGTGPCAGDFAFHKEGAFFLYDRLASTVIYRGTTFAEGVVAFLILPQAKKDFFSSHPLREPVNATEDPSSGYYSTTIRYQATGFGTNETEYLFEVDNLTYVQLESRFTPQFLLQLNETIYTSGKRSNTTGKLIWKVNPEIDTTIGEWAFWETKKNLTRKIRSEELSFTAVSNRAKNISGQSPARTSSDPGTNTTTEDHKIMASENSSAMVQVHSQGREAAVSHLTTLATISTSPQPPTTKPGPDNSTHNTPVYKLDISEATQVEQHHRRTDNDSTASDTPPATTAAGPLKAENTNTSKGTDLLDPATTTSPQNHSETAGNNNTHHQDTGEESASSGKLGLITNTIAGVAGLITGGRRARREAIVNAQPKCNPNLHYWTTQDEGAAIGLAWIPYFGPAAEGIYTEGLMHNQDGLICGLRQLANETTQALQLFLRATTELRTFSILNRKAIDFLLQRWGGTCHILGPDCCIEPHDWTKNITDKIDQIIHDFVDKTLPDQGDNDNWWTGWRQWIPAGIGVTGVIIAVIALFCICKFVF
Experiment: cell-based or functional assay
Here the recorded PRNT50 (ug/ml) for Ebola Zaire (Kikwit strain) is given for each entry.
Give a bare numeral; the unit µg/mL is implied.

[
  {
    "Binder": "5.1.10B3 (antibody, V domains shown) VH: EVQLVESGGGLVQPGGSLRLSCAASGFTFRSYDMHWVRQATGKGLEWVSAIGTAGDTYYPGSVKGRFTISRENAKNSLYLQMNSLRAEDTAVYYCARVRFGDTAVDYWGQGTLVTVSS VL: DIQMTQSPSSLSASVGDRVTITCRASQSISSFLNWHQQKPGKAPKLLIYAASSLQSGVPSRFSGSGSGTDFTLTISSLQPEDFAIYYCQQSYISPFTFGPGTKVDIK",
    "Unit name": "µg/mL",
    "Endpoint value": 3.13
  },
  {
    "Binder": "2.1.1D05 (antibody, V domains shown) VH: EVQLVESGGGLVKPGGSLRLSCAASGFTFSNAWMNWVRQAPGKGLEWVGRIKSKTDGGAADYAAPVKGRFTISRDDSKNTLYLQMNSLKTEDTAVYFCTTVYRYNYDSVWGQGTLVTVSS VL: QSVLTQPPSVSGAPGQRVTISCTGSSSNIGAGYDVYWYQQLPGTAPKLLIYGNSNRPSGVPDRFSGSKSGTSASLAITGLQAEDEADYYCQSFDSSLRDSWVFGGGTKLTVL",
    "Unit name": "µg/mL",
    "Endpoint value": 3.13
  },
  {
    "Binder": "2.1.1D07 (antibody, V domains shown) VH: EVQLLESGGGLVQPGGSLRLSCAASGFTFSTYGMSWVRQAPGKGLEWVSGISGSGGITYYADSVRGRFTISRDNSKNTLYLRMNSLRAEDTAVYYCAKVGEYYDFWSGYSPFEYWGQGTL VL: EIVLTQSPGTLSLSPGERATLSCRASQSVSSSYLAWYQQKPGQAPRLLIYGAFNRATGIPDRFSGSGSGTDFTLTISRLEPEDFAVYYCQLYGSSPWTFGQGTKVEIK",
    "Unit name": "µg/mL",
    "Endpoint value": 6.25
  }
]

Continue with the binder presented below.
Exercise: Query: PRNT50 (ug/ml) for Ebola Zaire (Kikwit strain); subject: 9.6.3D06 (antibody, V domains shown) VH: EVQLLESGGGLVQPGGSLRLSCAASGFTFSKYAMIWVRQAPGKGLQWVAGINKSGGRTYYADSVRGRFTISRDNSKNTLYLQMKSLRADDTAMYYCAKEGSPLSDVLLVAAPFGWFDPWGQGTLVTVSS VL: DIQMTQSPSTLSASVGDRVTITCRASQRINNLVAWYQQKPGKAPKVMIYDASSLKSGVPSRFSGSGSGTEFTLTISSLQPDDFATYFCQQYDTDSGWTFGQGTKVEIK
Solution: 1.57
